- Tested on: common ragweed (Ambrosia artemisizfolia L., AMBEL)
- TEST METHOD NOTES: Post-emerge test, greenhouse herbicide activity screening
- Format: in vivo
- CONDITION CONTEXT: post-emerge, 63 g ai/ha, 14 days after application, rating scale 0-100
READOUT LABEL: AMBEL phytotoxicity rating
Numbers only.

In the examples that follow, each entry is paired with its recorded AMBEL phytotoxicity rating.
GIVEN SMILES	AMBEL phytotoxicity rating
COc1c(Cl)cc(F)c(-n2c(=O)cc(C(F)(F)F)n(C)c2=O)c1NC(=O)c1ccc2cccc(F)c2c1	30
CCSCC(=O)Nc1c(OC)c(Cl)cc(F)c1-n1c(=O)cc(C(F)(F)F)n(C)c1=O	30
COc1c(Cl)cc(F)c(-n2c(=O)cc(C(F)(F)F)n(C)c2=O)c1NC(=O)Cc1ccccc1	20

Let's switch to this compound now.
input: Reported AMBEL phytotoxicity rating for COc1c(Cl)cc(F)c(-n2c(=O)cc(C(F)(F)F)n(C)c2=O)c1NC(=O)CSC(C)C : what is it?
output: 30

---

Would you mind telling me the reported pest or weed control at 63 g/ha of each entry?
- Test system: barnyardgrass (Echinochloa crus-galli, ECHCG)
- TEST METHOD NOTES: Pre-emerge test, greenhouse herbicide activity screening
- Format: in vivo
- CONDITION CONTEXT: Echinochloa crus-galli, pre-emergence, 336 h; pre-emerge, rate 63 g ai/ha, phytotoxicity rating 0-100 at 14 days after application; read-out: Pre-emerge Herbicidal Activity ECHCG
Give bare numbers, in %.

In the examples that follow, each entry is paired with its recorded pest or weed control at 63 g/ha.
GIVEN SMILES	REPORTED RESULT
Nc1c(O)c(Cl)cc(F)c1N1C(=O)C2=C(CCCC2)C1=O	0
Cc1nn(-c2c(Cl)cc(Cl)c(N)c2N)c(=O)n1C(F)F	0
COc1c(Cl)cc(F)c(-c2nn(C)c(C(F)(F)F)c2Cl)c1N	70
COc1c(Cl)cc(Cl)c(-n2nc(C)n(C(F)F)c2=O)c1NC(=O)c1ccc2ccccc2c1	10

input: Reported pest or weed control at 63 g/ha for Cc1nn(-c2c(N)cc(Cl)cc2F)c(=O)n1C(F)F : what is it?
output: 0

---

- System: field corn (Zea mays L., var. Dekalb 535, CORN)
- TEST METHOD NOTES: Post-emerge test, crop safety
- Format: in vivo
- CONDITION CONTEXT: post-emerge, 63 g ai/ha, crop damage rating 0-100 at 14 days after application
Would you mind telling me the reported Post-emerge Herbicidal Activity CORN of each entry?
Give bare numbers.

In the examples that follow, each entry is paired with its recorded Post-emerge Herbicidal Activity CORN.
COMPOUND	STUDY TARGET	REPORTED RESULT
COc1cccc(OC)c1OC(=O)Nc1c(C)c(Cl)cc(F)c1-n1c(=O)cc(C(F)(F)F)n(C)c1=O	field corn (Zea mays L., var. Dekalb 535, CORN)	5
COc1c(Cl)cc(F)c(-n2nnn(CCCF)c2=O)c1NC(=O)COCc1ccccc1	field corn (Zea mays L., var. Dekalb 535, CORN)	25
Cc1c(Cl)cc(F)c(-n2c(=O)cc(C(F)(F)F)n(C)c2=O)c1NC(=O)OCc1ccc(Cl)cc1	field corn (Zea mays L., var. Dekalb 535, CORN)	50

Let's switch to this compound now.
input: Reported Post-emerge Herbicidal Activity CORN for Nc1c(O)c(Cl)cc(F)c1N1C(=O)C2CCCCN2C1=S (single isomer, unassigned) [12-2] : what is it?
output: 10

---

Would you mind telling me the reported pest or weed control at 250 g/ha of each entry?
- System: ivyleaf morningglory (Ipomoea hederacea, IPOHE)
- TEST METHOD NOTES: Post-emerge test, greenhouse herbicide activity screening
- Format: in vivo
- CONDITION CONTEXT: Ipomoea, post-emergence, 336 h; post-emerge, 250 g ai/ha, phytotoxicity rating 0-100 at 14 days after application; read-out: Post-emerge Herbicidal Activity IPOHE

Lab note: each molecule below needs its pest or weed control at 250 g/ha filled in.
1. COc1c(Cl)cc(F)c(-c2nn(C)c(C(F)(F)F)c2Cl)c1NC(=O)c1ccc2ccccc2c1
2. COc1c(Cl)cc(F)c(-c2nn(C)c(C(F)(F)F)c2Cl)c1N
3. Nc1c(O)c(Cl)cc(F)c1N1C(=O)C2=C(CCCC2)C1=O
4. Cc1nn(-c2c(F)cc(Cl)cc2NC(=O)c2ccc3ccccc3c2)c(=O)n1C(F)F
5. COc1c(Cl)cc(F)c(N2C(=O)c3ccccc3C2=O)c1NC(=O)c1ccc2ccccc2c1
6. Cc1nn(-c2c(Cl)cc(Cl)c(N)c2N)c(=O)n1C(F)F
7. COc1c(Cl)cc(Cl)c(-n2nc(C)n(C(F)F)c2=O)c1NC(=O)c1ccc2ccccc2c1

output:
1: 100%; 2: 100%; 3: 90%; 4: 60%; 5: 70%; 6: 40%; 7: 70%

---

- Test system: barnyardgrass (Echinochloa crus-galli, ECHCG)
- TEST METHOD NOTES: Pre-emerge test, greenhouse herbicide activity screening
- Assay type: in vivo
- CONDITION CONTEXT: pre-emerge, 250 g ai/ha, 14 days after application, scale 0-100
For each record, check the reported phytotoxicity rating ECHCG: if it is below 60 write y, else write n.

Solved cases (5 shown):
GIVEN SMILES	DISCRETE LABEL
Cn1c(C(F)(F)F)cc(=O)n(-c2c(F)cc(OC(F)F)cc2NC(=O)c2ccc3ccccc3c2)c1=O	n
COc1c(Cl)cc(F)c(-n2c(=O)cc(C(F)(F)F)n(C)c2=O)c1NC(=O)c1ccc2c(C#N)cccc2c1	n
COc1c(Cl)cc(F)c(-n2c(=O)cc(C(F)(F)F)n(C)c2=O)c1NC(=O)CSC(C)C	y
Cn1c(C(F)(F)F)cc(=O)n(-c2ccc(C(F)(F)F)cc2NC(=O)c2ccc3ccccc3c2)c1=O	n
COc1c(C#N)cc(F)c(-n2c(=O)cc(C(F)(F)F)n(C)c2=O)c1NC(=O)C=Cc1ccccc1	n

input: Is phytotoxicity rating ECHCG strictly under 60 for the entry CCOC(=O)CSCC(=O)Nc1c(OC)c(Cl)cc(F)c1-n1c(=O)cc(C(F)(F)F)n(C)c1=O ?
output: y

input: Another molecule: COc1c(Cl)cc(F)c(-n2c(=O)cc(C(F)(F)F)n(C)c2=O)c1NC(=O)COc1ccc(Cl)cc1
output: y

---

Would you mind telling me the reported pest or weed control at 63 g/ha of each entry?
- Test system: lambsquarters (Chenopodium album, CHEAL)
- TEST METHOD NOTES: Pre-emerge test, greenhouse herbicide activity screening
- Format: in vivo
- CONDITION CONTEXT: Chenopodium album, pre-emergence, 336 h; pre-emerge, rate 63 g ai/ha, phytotoxicity rating 0-100 at 14 days after application; read-out: Pre-emerge Herbicidal Activity CHEAL
Answers are plain numbers, in %.

In the examples that follow, each entry is paired with its recorded pest or weed control at 63 g/ha.
MOLECULE	pest or weed control at 63 g/ha [%]
Cc1nn(-c2c(F)cc(Cl)cc2NC(=O)c2ccc3ccccc3c2)c(=O)n1C(F)F [Compound 6-24]	30
CC(C)Oc1c(Cl)cc(F)c(N2C(=O)C3=C(CCCC3)C2=O)c1N [Compound 8-4]	80
COc1c(Cl)cc(F)c(-c2nn(C)c(C(F)(F)F)c2Cl)c1NC(=O)C=Cc1ccccc1 [Compound 7-15]	100

input: Reported pest or weed control at 63 g/ha for Cc1nn(-c2c(Cl)cc(Cl)c(N)c2N)c(=O)n1C(F)F [Compound 6-20] : what is it?
output: 50

---

Would you mind telling me the reported phytotoxicity rating CASOB of each entry?
- Test system: sicklepod (Cassia obtusifolia, CASOB)
- TEST METHOD NOTES: Post-emerge test, greenhouse herbicide activity screening
- Format: in vivo
- CONDITION CONTEXT: post-emerge, 63 g ai/ha, 14 days after application, rating scale 0-100

MOLECULE	phytotoxicity rating CASOB
COc1c(Cl)cc(F)c(-n2c(=O)cc(C(F)(F)F)n(C)c2=O)c1NC(=O)c1ccc(F)cc1F [Compound 2-42]	65
COc1c(Cl)cc(F)c(-n2c(=O)cc(C(F)(F)F)n(C)c2=O)c1NC(=O)c1cccnc1 [2-98]	100

Lab note: each molecule below needs its phytotoxicity rating CASOB filled in.
1. COc1c(Cl)cc(F)c(-n2c(=O)cc(C(F)(F)F)n(C)c2=O)c1NC(=O)OCc1ccccn1 [4-36]
2. COc1c(Cl)cc(F)c(-n2c(=O)cc(C(F)(F)F)n(C)c2=O)c1NC(=O)c1ccccc1Cl [2-53]
3. COc1c(Cl)cc(F)c(-n2c(=O)cc(C(F)(F)F)n(C)c2=O)c1NC(=O)OCc1cc(C)ccc1C [4-38]
4. COc1c(Cl)cc(F)c(-n2c(=O)cc(C(F)(F)F)n(C)c2=O)c1NC(=O)CC#N [2-14]
5. Cn1c(C(F)(F)F)cc(=O)n(-c2ccc(C(N)=S)cc2NC(=O)c2ccc3ccccc3c2)c1=O [2-205]

output:
1. 100
2. 70
3. 90
4. 40
5. 90
